- Test system: OVCAR-3 ovarian
- assay.notes: NCI tumour cell line growth inhibition, 48 h

compound | TGI
c1ccc(N=C(N2CCCCC2)N(CCN2CCCCC2)c2ccccc2)cc1 | 2.51 µM
CC[C@@]1(C[C@H]2C[C@@]3(C(=O)OC)c4[nH]c5ccccc5c4CCN3C2=S)COC2(CCCCC2)O1 | > 100 µM
O=[N+]([O-])/C(C(Cl)=C(Cl)Cl)=C(\Nc1cccc2ccccc12)n1nnc2ccccc21 | > 100 µM
CCC(=O)NC(Nc1ccccc1F)(C(F)(F)F)C(F)(F)F | > 100 µM
CCC1c2[nH]c3ccccc3c2C[C@H]2C(=O)NC(Cc3c[nH]c4ccccc34)C(=O)N12 (some centres undefined) | 37.8 µM
CC1CC(c2ccccc2)Nc2nc3ccccc3n21 (centres undefined) | > 100 µM
CCOC(=O)c1ccc(N=Cc2ccc(N(CCC#N)CCC#N)cc2)cc1 | > 100 µM
COc1ccc(C(O)c2cc3c(N)c(C(=O)Nc4ccccc4)sc3nc2C)cc1 (centres undefined) | 1.27 µM
Cc1c(C)n(COCCO)c2ncnc(N)c12 | > 100 µM
CCOC(=O)c1ccc(C(=O)/C(C#N)=C2\CCCN2)n1C | > 100 µM
C#CC#CC#CC#CC#CC#CC#CC#CC[C@@H]1OC[C@H](COC(=O)O[C@@H](C(=O)O[C@H]2C[C@@]3(O)[C@@H](OC(=O)c4ccccc4)[C@@H]4[C@]5(OC(C)=O)CO[C@@H]5C[C@H](O)[C@@]4(C)C(=O)[C@H](OC(C)=O)C(=C2C)C3(C)C)[C@@H](NC(=O)c2ccccc2)c2ccccc2)O1 | > 25 µM
COC(=O)Nc1nc2ccc(NS(=O)(=O)c3ccc(Cl)cc3)cc2[nH]1 | 10.7 µM
CCOC(=O)C1C(c2ccc3c(c2)OCO3)c2c([nH][nH]c2=O)CC1(O)OCC (centres undefined) | > 100 µM
CCN(CC)CCn1ncc2c(N)ncnc21 | > 100 µM
N#CC(NCCc1ccccc1)c1ccc(C(C#N)NCCc2ccccc2)cc1 (centres undefined) | > 100 µM
CCCCNC(=O)OCCN=C1c2ccccc2C(Br)C(Br)c2ccccc21 (centres undefined) | 46.1 µM
c1ccc(P2c3ccccc3Nc3ccccc32)cc1 | 47.3 µM
COc1ccc(CCc2nc3cc(-c4c(C)noc4C)ccc3n2CCN2CCOCC2)cc1 | 59.8 µM
COc1cc2c(cc1OCCCCCN1CCN(CCCCCOc3cc4c(cc3OC)C(=O)C3CCC[C@H]3C=N4)CC1)N=C[C@@H]1CCCC1C2=O (some centres undefined) | > 93.4 µM

###

- Tested on: NCI-H23 lung
- assay.notes: NCI tumour cell line growth inhibition, 48 h
We begin with a simple list: items and their reported TGI.
recorded.metric: TGI

compound | val
CC(C)C(NCc1c2ccccc2[n+]([O-])c2ccccc12)C(=O)O (stereo not given) | > 100 µM
CCOC(=O)c1cc2c([nH]1)c(OC(C)=O)cc1c2ccn1Cc1ccccc1 | > 100 µM
COc1ccc(CCc2nc3cc(-c4c(C)noc4C)ccc3n2CCN2CCOCC2)cc1 | > 100 µM
NC1(P(=O)(O)O)CCCCC1 | > 100 µM
CCOC(=O)C(C(=O)OCC)C1C=CCC2c3ccccc3COCC21 (stereo not given) | > 100 µM
CCSC1=CC(Cc2ccc(OC)cc2)N(C(=O)OC)C1 (stereo not given) | > 100 µM
COc1cc(Br)c(CC2C3=C(CCN2C(=O)C2CCC2)CC2(CC3)OCCO2)cc1O (stereo not given) | 79.7 µM
CCOC(=O)/C=C/C1OC(C)(C)OC1/C=C/C(=O)OCC (stereo not given) | > 100 µM
COC(=O)Nc1nc2ccc(NS(=O)(=O)c3ccc(Cl)cc3)cc2[nH]1 | 36.9 µM
Cc1ccc(S(=O)(=O)NC2CCCCO2)cc1 (stereo not given) | > 100 µM
CC(CO)CCNc1ncnc2c1ncn2CCC(=O)O (stereo not given) | > 100 µM
CNC(=O)c1ccc(C(=O)NCCCCCN(O)C(=O)CCC(=O)NCCCCCN(O)C(=O)CCC(=O)NCCCCCN(O)C(C)=O)c(O)c1O | > 100 µM
COc1cc2c(cc1OCCCC(=O)Nc1cc(C(=O)Nc3cc(C(=O)Nc4cc(C(=O)NCCCN(C)C)n(C)n4)n(C)c3)n(C)c1)N=CC1CCCN1C2=O (stereo not given) | 78.5 µM
CC(=O)Nc1ccc(C(=O)NN2C(=O)C(Cl)C2c2cc(Br)cc(Br)c2O)cc1 (stereo not given) | > 100 µM
Cc1ccc(C(=O)N/N=C(\N=Nc2cccc(C)c2)c2ccc(N(CCC#N)CCC#N)cc2C)cc1 | > 100 µM

###

- System: SK-OV-3 ovarian
- assay.notes: NCI tumour cell line growth inhibition, 48 h; in the data active means GI50 below about 0.43 µM; inactive means the rest
Labels: 1 (yes) for active, 0 (no) for inactive

compound | label
COc1ccc(C(O)c2cc3c(N)c(C(=O)Nc4ccccc4)sc3nc2C)cc1 (centres undefined) | 1 (yes)
COc1ccc(CCc2nc3cc(-c4c(C)noc4C)ccc3n2CCN2CCOCC2)cc1 | 0 (no)
CCNCCNc1cc(-c2ccc(Cl)c(Cl)c2)c(C#N)c2nc3ccccc3n12 | 0 (no)
O=Cc1cn(Cc2ccccc2)c2ccccc12 | 0 (no)
O=S(=O)(Nc1cc(F)cc(F)c1)c1ccc(-c2cnc(C3CC3)o2)cc1 | 0 (no)
COC(=O)N[C@H]1C=C[C@@H]2/C=C(C)/C=C/[C@@H](C)[C@H]([C@H](C)[C@H](O)[C@@H](C)NC(C)=O)OC(=O)/C=C/C=C(C)\C=C\[C@]2(C)C1 | 1 (yes)
Cn1cc(C2=C(n3ccc4ccccc43)C(=O)NC2=O)c2ccccc21 | 0 (no)
COC(=O)[C@]12CC[C@@H](C)[C@H](C)[C@@H]1C1=CC[C@@H]3[C@@]4(C)C[C@@H](OC(C)=O)[C@H](O)[C@@](C)(CO)[C@@H]4[C@H](O)C[C@@]3(C)[C@]1(C)CC2 | 0 (no)
CCCCCCCCCCCCCCCC(=O)Nc1ccn([C@@H]2O[C@H](CO)[C@@H](O)[C@@H]2C#N)c(=O)n1 | 0 (no)
CCNC(=O)N1CCc2c(Cl)c3c(c(OC)c2[C@@H]1[C@H]1OCc2c1ccc(OC)c2OC)OCCO3 | 0 (no)
O=C([CH-]C(=O)C(F)(F)F)c1ccccc1.O=C([CH-]C(=O)C(F)(F)F)c1ccccc1.[O]=[U+2]=[O] | 0 (no)
CCOC(=O)c1cc(C(=O)c2cc(OC)c(OC)c(OC)c2)n2nc(C)ccc12 | 0 (no)
CC(=O)/C(=C\c1c(-c2ccccc2)[nH]c2ccccc12)S(C)(=O)=O | 0 (no)
O=c1[nH]nc(-c2nn(-c3ccc(Cl)cc3)cc2O)o1 | 1 (yes)

###

- System: CAKI-1 renal
- assay.notes: NCI tumour cell line growth inhibition, 48 h

compound | TGI
CCOC(=O)C(C(=O)OCC)C1C=CCC2c3ccccc3COCC21 (stereo unspecified) | > 100 µM
CCN(CC)c1ccc2cc(-c3nc4ccccc4n3C)c(=O)oc2c1 | > 100 µM
CN(C)c1nc2n(CCO)ccnc-2c(=O)n1 | > 100 µM
C=C(C)[C@@H]1CC[C@]2(C(N)=O)CC[C@]3(C)[C@H](CC[C@@H]4[C@@]5(C)C/C(=C/c6cccnc6)C(=O)C(C)(C)[C@@H]5CC[C@]43C)[C@@H]12 | 21.2 µM
CN(C)C(=S)/N=c1\ssc(=Nc2ccccc2)n1C | > 100 µM
Oc1ccc2c(c1)OCC1(O)Cc3cc(O)c(O)cc3C21 (stereo unspecified) | 32.8 µM
Cc1ccc(C(=O)N/N=C(\N=Nc2cccc(C)c2)c2ccc(N(CCC#N)CCC#N)cc2C)cc1 | > 100 µM
O=C(Cc1cc(=O)oc2cc(O)ccc12)N/N=C/c1ccc(N(CCCl)CCCl)cc1 | 31.7 µM
NC1(P(=O)(O)O)CCCCC1 | > 100 µM
O=C(Nc1cc(Cl)c(Cl)cc1Cl)C(=O)C(C(=O)c1ccccc1)C1OC(=O)c2ccccc21 (stereo unspecified) | > 100 µM
CCOC(=O)CC1C(O)C(=O)N(C)C1c1ccccc1 (stereo unspecified) | > 100 µM
O=C(CCC1CCCCC1)NCc1ccc(C(=O)O)cc1 | > 100 µM
CC(NC(=O)OC(C)(C)C)C(=O)NC1CCCC1 (stereo unspecified) | > 100 µM
CO/C(=N\N=C\c1ccccc1F)c1ccncc1 | > 10 µM
CCCCCCC(O)(c1ccc(F)cc1)C(CN1CCOCC1)c1ccccc1 (stereo unspecified) | 28.9 µM
Cc1ccccc1Cn1nc2ccccc2cc1=O | > 100 µM
CCCCCC[n+]1noc(N)c1-c1ccc(-c2c(N)on[n+]2CCCCCC)cc1 | 5.22 µg/mL
COc1ccc(C2NC(=O)c3cc4c(cc3N2)OCO4)cc1 (stereo unspecified) | > 100 µM
COC(=O)c1ccc(C2SC(C)C(=O)N2NC(=O)C(O)c2ccccc2)cc1 (stereo unspecified) | > 100 µM
CCOC(=O)c1cc(C)n(CN(CCO)Cn2nc(C(=O)OCC)cc2C)n1 | > 100 µM
CN(C)CCNS(=O)(=O)N(C)C | > 100 µM
CS(=O)(=O)Nc1ccc2c(c1)N(S(C)(=O)=O)CC2COS(C)(=O)=O (stereo unspecified) | > 100 µM
CC(C)(C(=O)NCC(F)(F)C(F)(F)F)C(=O)N[C@@H]1C(=O)Nc2ccccc2-c2ccccc21 | > 100 µM
O=C(Nc1ccccc1C(=O)N/N=C(\c1ccccc1)c1ccccn1)c1ccccc1 | > 100 µM
O=Cc1cn(Cc2ccccc2)c2ccccc12 | 0.547 µM
CC(C)NC1(C(N)=O)CCN(Cc2ccccc2)CC1 | > 100 µM
COC(=O)C(/C(=N/NC(N)=O)C(=O)Nc1c(C)cccc1C(C)(C)C)c1nc2ccc(Cl)cc2[nH]c1=O (stereo unspecified) | > 100 µM
CCCCNC(=O)OCCN=C1c2ccccc2C(Br)C(Br)c2ccccc21 (stereo unspecified) | 49.2 µM
CC(C)(C)OC(=O)N(CCCN)CCCCN | > 100 µM
CCOC(=O)c1ccc(N=Cc2ccc(N(CCC#N)CCC#N)cc2)cc1 | > 100 µM
CCOc1ccc(C2Oc3c(cccc3OC)C=C2[N+](=O)[O-])cc1OCC (stereo unspecified) | 17.3 µM
O=C1OC(Cl)C(N=P(c2ccccc2)(c2ccccc2)c2ccccc2)=C1Cl (stereo unspecified) | > 100 µM
CCOP(=O)(OCC)C(C)(CC)NC1=NC(C(F)(F)F)(C(F)(F)F)NC(=O)N1 (stereo unspecified) | > 100 µM
O=C1NC(N/N=C\C(O)C(O)C(O)C(O)CO)=N/C1=C\c1ccc(Cl)cc1 (stereo unspecified) | > 100 µM
COc1ccc(/C=C(/C(=O)N2CCCCC2)c2cc(OC)c(OC)c(OC)c2)cc1 | > 100 µM
CC[C@@]1(C[C@H]2C[C@@]3(C(=O)OC)c4[nH]c5ccccc5c4CCN3C2=S)COC2(CCCCC2)O1 | > 100 µM
c1ccc2c(c1)N[C@@H]1c3[nH]c4ccccc4c3CC[C@H]21 | 38.6 µM
CN(C)CCNC(=O)C1COc2cc(-c3cc(=O)c4ccccc4o3)ccc2O1 (stereo unspecified) | 38.3 µM
CCC(C)CN=C(N)c1ccc(N2CCN(c3ccc(C(N)=NCC(C)CC)cc3)CC2)cc1 (stereo unspecified) | 92.3 µM
CCN(CC)C(=S)SS(=O)(=O)c1ccc(N)cc1 | > 90.2 µM
CCSC1=CC(Cc2ccc(OC)cc2)N(C(=O)OC)C1 (stereo unspecified) | > 100 µM
